- Measured on: MAPK8 (JNK1) (Homo sapiens, UniProt P45983)
- Construct: purchased Life Technologies Corporation
- Sequence (P45983 whole entry): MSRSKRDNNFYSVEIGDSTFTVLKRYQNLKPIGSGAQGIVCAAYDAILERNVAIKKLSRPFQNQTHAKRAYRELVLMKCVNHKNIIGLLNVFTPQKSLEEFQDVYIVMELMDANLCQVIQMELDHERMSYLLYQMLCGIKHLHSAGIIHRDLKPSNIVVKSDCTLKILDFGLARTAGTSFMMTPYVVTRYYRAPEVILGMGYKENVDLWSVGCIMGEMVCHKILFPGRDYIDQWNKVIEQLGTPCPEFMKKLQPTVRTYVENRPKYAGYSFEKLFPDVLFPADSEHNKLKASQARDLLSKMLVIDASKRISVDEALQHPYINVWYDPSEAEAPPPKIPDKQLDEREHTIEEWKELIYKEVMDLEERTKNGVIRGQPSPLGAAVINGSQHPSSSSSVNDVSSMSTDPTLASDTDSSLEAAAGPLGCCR
- Test details: Kinase selectivity, Z'-LYTE platform
- Assay type: biochemical
- Applied conditions: 1 micromolar compound, read-out: percent inhibition MAPK8 (JNK1)
Outcome measure: inhibition at 1 µM (%)

Sample smiles: C[C@@H]1CN(c2cc(-c3n[nH]c4ccc(OC5(C)CC5)cc34)ccn2)C[C@H](C)O1
Measured on: MAPK8 (JNK1) (Homo sapiens, UniProt P45983)
Result: 39
--
Sample smiles: C[C@H]1CN(c2cc(-c3n[nH]c4ccc(OC5(C)CC5)cc34)ccn2)CCO1
Measured on: MAPK8 (JNK1) (Homo sapiens, UniProt P45983)
Result: 58
--
Sample smiles: C[C@@H]1CN(c2cc(-c3n[nH]c4ccc(OC5(C)CC5)cc34)ccn2)CCO1
Measured on: MAPK8 (JNK1) (Homo sapiens, UniProt P45983)
Result: 54
--
Sample smiles: CC1(Oc2ccc3[nH]nc(-c4ccnc(N5CCOCC5)c4)c3c2)CC1
Measured on: MAPK8 (JNK1) (Homo sapiens, UniProt P45983)
Result: 61

* * *

- Measured on: JAK3 (Homo sapiens, UniProt P52333)
- Construct: purchased Life Technologies Corporation
- Sequence (P52333 whole entry): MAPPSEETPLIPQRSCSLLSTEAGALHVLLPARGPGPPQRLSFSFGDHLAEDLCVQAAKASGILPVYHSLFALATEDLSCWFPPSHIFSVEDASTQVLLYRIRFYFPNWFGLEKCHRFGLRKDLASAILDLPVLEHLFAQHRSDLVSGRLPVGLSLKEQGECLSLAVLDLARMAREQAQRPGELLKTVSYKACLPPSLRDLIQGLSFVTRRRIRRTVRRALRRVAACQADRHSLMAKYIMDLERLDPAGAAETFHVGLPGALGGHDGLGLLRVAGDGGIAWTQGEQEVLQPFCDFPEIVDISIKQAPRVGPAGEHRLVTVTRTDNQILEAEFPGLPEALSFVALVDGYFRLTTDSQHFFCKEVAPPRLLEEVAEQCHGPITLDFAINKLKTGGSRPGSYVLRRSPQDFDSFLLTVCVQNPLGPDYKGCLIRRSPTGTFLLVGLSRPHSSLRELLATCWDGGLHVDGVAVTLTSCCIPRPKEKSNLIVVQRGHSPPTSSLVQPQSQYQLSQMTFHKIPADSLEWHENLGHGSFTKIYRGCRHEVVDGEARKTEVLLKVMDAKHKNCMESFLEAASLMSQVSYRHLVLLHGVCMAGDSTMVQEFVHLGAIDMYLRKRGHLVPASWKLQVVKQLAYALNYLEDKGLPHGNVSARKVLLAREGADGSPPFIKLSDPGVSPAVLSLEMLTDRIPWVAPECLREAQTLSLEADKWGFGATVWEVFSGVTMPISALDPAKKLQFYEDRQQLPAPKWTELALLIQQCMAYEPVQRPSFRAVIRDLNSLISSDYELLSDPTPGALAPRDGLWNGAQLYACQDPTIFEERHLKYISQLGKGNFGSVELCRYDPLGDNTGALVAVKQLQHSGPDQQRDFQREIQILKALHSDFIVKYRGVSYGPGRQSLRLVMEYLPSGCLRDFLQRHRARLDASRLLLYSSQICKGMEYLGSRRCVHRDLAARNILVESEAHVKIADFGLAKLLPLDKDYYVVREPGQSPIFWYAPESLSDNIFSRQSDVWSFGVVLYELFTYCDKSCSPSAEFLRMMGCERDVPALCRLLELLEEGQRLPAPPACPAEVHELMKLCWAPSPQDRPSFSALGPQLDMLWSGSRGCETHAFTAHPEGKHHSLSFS
- Test details: Kinase selectivity, Z'-LYTE platform
- Assay type: biochemical
- Applied conditions: 1 micromolar compound, read-out: percent inhibition JAK3

Compound: C[C@H]1CN(c2cc(-c3n[nH]c4ccc(OC5(C)CC5)cc34)ccn2)CCO1 [Example 28]
inhibition at 1 µM: 49%

Compound: C[C@@H]1CN(c2cc(-c3n[nH]c4ccc(OC5(C)CC5)cc34)ccn2)C[C@H](C)O1 [Example 30]
inhibition at 1 µM: 37%

Compound: CC1(Oc2ccc3[nH]nc(-c4ccnc(N5CCOCC5)c4)c3c2)CC1 [Example 27]
inhibition at 1 µM: 56%

Compound: C[C@@H]1CN(c2cc(-c3n[nH]c4ccc(OC5(C)CC5)cc34)ccn2)CCO1 [Example 29]
inhibition at 1 µM: 46%

* * *

- Measured on: LRRK2 (G2019S mutation, GST-LRRK2 (amino acids 970-2527)) (Homo sapiens, UniProt Q5S007, G2019S)
- Construct: GST-LRRK2 (amino acids 970-2527); GST (N); purchased Life Technologies Corporation
- Sequence (Q5S007 970-2527 G2019S): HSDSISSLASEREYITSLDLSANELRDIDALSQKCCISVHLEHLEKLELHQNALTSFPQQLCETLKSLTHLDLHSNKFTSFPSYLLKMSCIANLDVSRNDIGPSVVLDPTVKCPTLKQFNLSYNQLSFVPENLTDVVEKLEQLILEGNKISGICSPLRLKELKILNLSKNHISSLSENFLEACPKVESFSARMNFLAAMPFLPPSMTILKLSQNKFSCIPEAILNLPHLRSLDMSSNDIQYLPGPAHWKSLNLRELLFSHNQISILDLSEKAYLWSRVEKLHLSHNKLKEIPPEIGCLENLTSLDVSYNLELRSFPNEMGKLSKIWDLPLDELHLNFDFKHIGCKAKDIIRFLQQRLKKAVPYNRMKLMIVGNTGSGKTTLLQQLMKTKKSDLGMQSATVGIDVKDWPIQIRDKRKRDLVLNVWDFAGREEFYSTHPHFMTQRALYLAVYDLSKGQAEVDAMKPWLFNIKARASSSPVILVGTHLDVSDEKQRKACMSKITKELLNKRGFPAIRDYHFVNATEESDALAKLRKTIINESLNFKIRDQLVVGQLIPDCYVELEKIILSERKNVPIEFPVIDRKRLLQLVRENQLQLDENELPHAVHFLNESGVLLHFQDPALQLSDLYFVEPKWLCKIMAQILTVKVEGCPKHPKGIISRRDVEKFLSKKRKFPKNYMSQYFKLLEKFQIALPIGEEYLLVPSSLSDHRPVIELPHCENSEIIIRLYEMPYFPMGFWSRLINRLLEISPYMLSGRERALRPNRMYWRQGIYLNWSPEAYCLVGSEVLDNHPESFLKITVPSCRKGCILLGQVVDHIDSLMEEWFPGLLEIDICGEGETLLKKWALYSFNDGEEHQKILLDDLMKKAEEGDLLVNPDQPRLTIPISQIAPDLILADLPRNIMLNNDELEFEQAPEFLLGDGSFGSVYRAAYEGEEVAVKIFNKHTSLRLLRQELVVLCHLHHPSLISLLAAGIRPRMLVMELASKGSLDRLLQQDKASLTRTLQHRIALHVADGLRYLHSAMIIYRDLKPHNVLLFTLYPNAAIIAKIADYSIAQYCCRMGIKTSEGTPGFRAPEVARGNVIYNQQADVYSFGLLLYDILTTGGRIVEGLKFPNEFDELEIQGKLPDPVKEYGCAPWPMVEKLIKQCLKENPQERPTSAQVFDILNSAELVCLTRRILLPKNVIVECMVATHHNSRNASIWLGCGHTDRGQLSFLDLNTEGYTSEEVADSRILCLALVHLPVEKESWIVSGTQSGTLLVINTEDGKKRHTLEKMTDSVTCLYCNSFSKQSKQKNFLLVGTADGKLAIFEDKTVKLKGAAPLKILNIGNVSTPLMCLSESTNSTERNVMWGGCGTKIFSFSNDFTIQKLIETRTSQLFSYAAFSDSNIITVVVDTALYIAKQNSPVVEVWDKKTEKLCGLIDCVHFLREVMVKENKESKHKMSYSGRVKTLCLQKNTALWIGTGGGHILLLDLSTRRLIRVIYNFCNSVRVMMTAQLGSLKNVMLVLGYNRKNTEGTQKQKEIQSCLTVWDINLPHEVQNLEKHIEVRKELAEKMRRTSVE
- Test details: LRRK2 Km ATP LanthaScreen Assay
- Assay type: biochemical
- Applied conditions: mean IC50
pIC50: −log10 of the molar value.
Returns 1.0 if the recorded pIC50 is greater than or equal to 8, and 0.0 otherwise.

Molecule: CO[C@H]1CN(c2cc(-c3n[nH]c4ccc(OC5CC5)cc34)ccn2)C[C@@H]1O
Label value: 0.0
--
Molecule: O=S1(=O)CC2CC(C1)N(c1cc(-c3n[nH]c4ccc(OC5CC5)cc34)ccn1)C2 (stereo not shown)
Label value: 0.0
--
Molecule: CN1CCN(c2cc(-c3n[nH]c4ccc(OC5(C)CC5)cc34)ccn2)CC1=O
Label value: 1.0
--
Molecule: C[C@H]1[C@H](O)[C@@H](O)CN1c1cc(-c2n[nH]c3ccc(OC4(C)CC4)cc23)ccn1
Label value: 1.0
--
Molecule: [O-][S+]1CCCN(c2cc(-c3n[nH]c4ccc(OC5CC5)cc34)ccn2)CC1 (stereo not shown)
Label value: 0.0
--
Molecule: c1cc(-c2n[nH]c3ccc(OC4COC4)cc23)cc(N2CCOCC2)n1
Label value: 0.0
--
Molecule: CC1(Oc2ccc3[nH]nc(-c4ccnc(N5CCN(S(C)(=O)=O)CC5)c4)c3c2)CC1
Label value: 1.0
--
Molecule: CC1(Oc2ccc3[nH]nc(-c4ccnc(N5CCOCC5)c4)c3c2)CC1
Label value: 1.0
